Molecular target: T1, mouse GIP receptor (mouse, UniProt Q0P543 19-460)
T1 sequence: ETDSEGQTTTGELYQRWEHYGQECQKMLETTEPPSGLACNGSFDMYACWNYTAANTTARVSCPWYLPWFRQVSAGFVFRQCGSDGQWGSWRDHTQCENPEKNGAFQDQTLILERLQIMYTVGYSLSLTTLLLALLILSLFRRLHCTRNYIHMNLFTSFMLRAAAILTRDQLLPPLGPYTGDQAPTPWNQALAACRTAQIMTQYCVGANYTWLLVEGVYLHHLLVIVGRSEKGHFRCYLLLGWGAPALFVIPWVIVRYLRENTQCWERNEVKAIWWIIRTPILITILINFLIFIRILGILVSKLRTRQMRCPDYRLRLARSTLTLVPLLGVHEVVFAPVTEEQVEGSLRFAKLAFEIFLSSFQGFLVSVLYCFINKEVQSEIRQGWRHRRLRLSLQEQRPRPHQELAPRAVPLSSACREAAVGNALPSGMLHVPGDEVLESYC
Assay: radioligand binding
*1 amine or outer side, *2 acyl side, *3 side chain or, on linkers, in order; H or OH if unused. Where no end group is shown, it is not given here. Side-chain parts run from the residue outwards. The star is where a group is joined. γGlu = O=C(O)[C@H](CCC(=O)[*:2])N[*:1]; Palmitoyl = CCCCCCCCCCCCCCCC(=O)*
IC50 values for the binders below.
reported_property: IC50 (nM)

1. Ac-TFISDK([γGlu-Palmitoyl])SIALDKIRQQEFVNWLLAQKG [[Nα-Ac, L14, R18, E21] hGIP(5-31)-K10 (γE-C16)]
1
2. FISDYSIALDKIRQQEFVNWLLAQKG [[L14, R18, E21] hGIP(6-31)]
37.1
3. TFISDYSIALDKIRQQEFVNWLLAQKG [[L14, R18, E21] hGIP(5-31)]
18.7

Origin of measurements: paper PMC9719863
